- experimental.protocol: ATG_CRE_CIS: Attagene CIS-FACTORIAL HepG2 Assay for human cAMP Responsive Element (CRE) binding protein 3 (AID 2282926)
- recorded.conditions: HepG2 CRE cis-reporter, Attagene multiplexed mRNA; actives raise or lower the signal
The source made the active and inactive calls. The calls were made as follows: active = hit-call score of the fitted dose curve at least 0.9, where 1 is the maximum; inactive = score below 0.9.
The reply should name one outcome from true for active, false for inactive

Hi team, can someone confirm the assay call for `COC(=O)c1c(C(F)F)nc(C(F)(F)F)c(C2=NCCS2)c1CC(C)C` ?
true

Hi team, can someone confirm the assay call for `CCOc1nc(C(Cl)(Cl)Cl)ns1` ?
true

Hi team, can someone confirm the assay call for `CCCCOCN(C(=O)CCl)c1c(CC)cccc1CC` ?
true

Hi team, can someone confirm the assay call for `COc1cc(OC)nc(NC(=O)NS(=O)(=O)c2ncccc2OCC(F)(F)F)n1` ?
false

Hi team, can someone confirm the assay call for `CSC(=O)c1c(C(F)F)nc(C(F)(F)F)c(C(=O)SC)c1CC(C)C` ?
false

Hi team, can someone confirm the assay call for `CC(C)N1C(=O)N(c2ccccc2)CSC1=NC(C)(C)C` ?
false

Hi team, can someone confirm the assay call for CC(C)C1(C)N=C(c2ncccc2C(=O)O)NC1=O (configuration not stated) ?
false

Hi team, can someone confirm the assay call for `Clc1nc(Cl)nc(Nc2ccccc2Cl)n1` ?
true

Hi team, can someone confirm the assay call for `CC(C)NC(=O)N1CC(=O)N(c2cc(Cl)cc(Cl)c2)C1=O` ?
false

Hi team, can someone confirm the assay call for `CC(C)Nc1nc(Cl)nc(NC(C)C)n1` ?
false

Hi team, can someone confirm the assay call for `Cn1c(-c2ccccc2)cc(-c2ccccc2)[n+]1C` ?
false

Hi team, can someone confirm the assay call for `OC(c1ccc(Cl)cc1)(c1ccc(Cl)cc1)C(Cl)(Cl)Cl` ?
false

----------
- Read-out: glucuronosyltransferase (UGT1A1), UGT1A1 (gene 54658)
- experimental.protocol: CLD_UGT1A1_48hr: CellzDirect (CLD) Gene Expression Assay for glucuronosyltransferase (UGT1A1) at 48 hours (AID 2283709);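 also: actives increase expression relative to DMSO so potency refers to induction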
- Protocol: CLD_48hr is a cell-based, multiplexed-readout assay that uses hepatocyte, a human liver primary cell, with measurements taken at 48 hours after chemical dosing in a 96-well plate.CLD_UGT1A1_48hr is one of 16 assay component(s) measured or calculated from the CLD_48hr assay. […] Furthermore, this assay endpoint can be referred to as a primary readout. […]
Records with an inconclusive call do not appear. The source made the active and inactive calls. The calls were made as follows: active = hit-call score of the fitted dose curve at least 0.9, where 1 is the maximum; inconclusive = response in the unintended direction; inactive = score below 0.9.
observable: outcome

// below: answered compounds
- compound: "COC(=O)c1c(C(F)F)nc(C(F)(F)F)c(C2=NCCS2)c1CC(C)C"
  result: "inactive"
- compound: "Clc1cccc(C(Cl)(Cl)Cl)n1"
  result: "inactive"
- compound: "COc1cc(Cl)c(OC)cc1Cl"
  result: "inactive"
- compound: "CC(C)N1C(=O)c2ccccc2NS1(=O)=O"
  result: "inactive"
- compound: "COP(=O)(OC)O/C(C)=C/C(=O)N(C)C"
  result: "inactive"
- compound: "Cc1c(COC(=O)[C@@H]2[C@H](/C=C(\\Cl)C(F)(F)F)C2(C)C)cccc1-c1ccccc1"
  result: "inactive"
- compound: "CS(=O)(=O)c1ccc(C(=O)C2C(=O)CCCC2=O)c([N+](=O)[O-])c1"
  result: "inactive"
- compound: "CO/N=C(/C1=NOCCO1)c1ccccc1Oc1ncnc(Oc2ccccc2Cl)c1F"
  result: "inactive"
- compound: "CCCCC(C#N)(Cn1cncn1)c1ccc(Cl)cc1 (configuration not stated)"
  result: "inactive"
- compound: "CCN(CC)c1nc(C)cc(OP(=S)(OC)OC)n1"
  result: "inactive"

The compound identified as `N#Cc1c(Cl)cccc1Cl` registered its outcome at inactive

The compound identified as `Cc1nc(N(C)C)nc(OC(=O)N(C)C)c1C` registered its outcome at inactive

----------
- Read-out: Glutathione S-Transferase (GSTA2), GSTA2 (gene 2939)
- experimental.protocol: LTEA_HepaRG_GSTA2: Life Technologies and Expression Analysis (LTEA) Assay for Glutathione S-Transferase (GSTA2) using HepaRG (AID 2283497)
- recorded.conditions: mRNA level, 48 h; actives raise or lower the signal
- Procedure: LTEA_HepaRG is a cell based, multiplexed-readout assay that uses HepaRG, a human liver cell line, with measurements taken at 48 hours after chemical dosing on a 96-well plate.LTEA_HepaRG_GSTA2 is one of 102 assay component(s) measured in the LTEA HepaRG cell culture assay. It is a marker of Oxidative Stress.Data from the assay component LTEA_HepaRG_GSTA2 was analyzed into 1 endpoint. […]
Activity calls are given as the source filed them. The calls were made as follows: active = hit-call score of the fitted dose curve at least 0.9, where 1 is the maximum; inactive = score below 0.9.
The reply should name one outcome from class 1 = active, class 0 = inactive

Hi team, can someone confirm the assay call for `CC(C)N1C(=O)c2ccccc2NS1(=O)=O` ?
class 0

Hi team, can someone confirm the assay call for CCOC(=O)C(C)OC(=O)c1cc(Oc2ccc(C(F)(F)F)cc2Cl)ccc1[N+](=O)[O-] (configuration not stated) ?
class 1

Hi team, can someone confirm the assay call for `O=c1n(Cl)c(=O)n(Cl)c(=O)n1Cl` ?
class 0

Hi team, can someone confirm the assay call for `N#CN=C1SCCN1Cc1ccc(Cl)nc1` ?
class 0

Hi team, can someone confirm the assay call for COCC(C)N(C(=O)CCl)c1c(C)csc1C (configuration not stated) ?
class 1

Hi team, can someone confirm the assay call for CCCCC(C#N)(Cn1cncn1)c1ccc(Cl)cc1 (configuration not stated) ?
class 0

Hi team, can someone confirm the assay call for CC1(C)C(C=C(Cl)Cl)C1C(=O)OC(C#N)c1cccc(Oc2ccccc2)c1 (configuration not stated) ?
class 0

Hi team, can someone confirm the assay call for `O=P(O)(O)CCCl` ?
class 0

Hi team, can someone confirm the assay call for `C=CCOC(=O)C(C)(C)OC(=O)c1cc(-n2c(=O)cc(C(F)(F)F)n(C)c2=O)ccc1Cl` ?
class 0

Hi team, can someone confirm the assay call for `O=C(O)c1c(Cl)ccc2cc(Cl)cnc12` ?
class 0

Hi team, can someone confirm the assay call for `Cc1cc(C)nc(Nc2ccccc2)n1` ?
class 0

Hi team, can someone confirm the assay call for `CN/C(=N\[N+](=O)[O-])NCc1cnc(Cl)s1` ?
class 0

----------
- Read-out: Glutamate-cysteine ligase catalytic (GCLC), GCLC (gene 2729)
- experimental.protocol: LTEA_HepaRG_GCLC: Life Technologies and Expression Analysis (LTEA) Assay for Glutamate-cysteine ligase catalytic (GCLC) using HepaRG (AID 2283498)
- recorded.conditions: mRNA level, 48 h; actives raise or lower the signal
Activity calls are given as the source filed them. The calls were made as follows: active = hit-call score of the fitted dose curve at least 0.9, where 1 is the maximum; inactive = score below 0.9.
observable: outcome

- molecule: "CCCN(CC)CC1COC2(CCC(C(C)(C)C)CC2)O1 (configuration not stated)"
  outcome: "inactive"
- molecule: "Clc1cccc(C(Cl)(Cl)Cl)n1"
  outcome: "inactive"
- molecule: "CCNP(=S)(OC)O/C(C)=C/C(=O)OC(C)C (configuration not stated)"
  outcome: "inactive"
- molecule: "Cc1ccc(N=CN(C)C=Nc2ccc(C)cc2C)c(C)c1"
  outcome: "inactive"
- molecule: "CCN(CC)c1nc(C)cc(OP(=S)(OC)OC)n1"
  outcome: "inactive"

The molecule identified as Cc1cnc(C2=NC(C)(C(C)C)C(=O)N2)c(C(=O)O)c1 (configuration not stated) registered its outcome at inactive

The molecule identified as `O=c1n(Cl)c(=O)n(Cl)c(=O)n1Cl` registered its outcome at inactive

The molecule identified as `Clc1nc(Cl)nc(Nc2ccccc2Cl)n1` registered its outcome at inactive

The molecule identified as `COC(=O)NC(=S)Nc1ccccc1NC(=S)NC(=O)OC` registered its outcome at inactive

The molecule identified as `C=CCOC(=O)C(C)(C)OC(=O)c1cc(-n2c(=O)cc(C(F)(F)F)n(C)c2=O)ccc1Cl` registered its outcome at inactive

The molecule identified as `CNC(=O)N(C)c1nnc(C(C)(C)C)s1` registered its outcome at inactive

The molecule identified as `CC(C)Oc1cccc(NC(=O)c2ccccc2C(F)(F)F)c1` registered its outcome at inactive

----------
- measured.target: Estrogen receptor (Homo sapiens)
- experimental.protocol: CCTE_Deisenroth_AIME_384WELL_LUC_Inactive: CCTE's 384-well Estrogen Receptor Transactivation Assay without AIME metabolic competence (ERTA luciferase; metabolism negative), Deisenroth Lab (AID 2284038);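 also: VM7Luc4E2 breast cells given medium preincubated 2 h with S9-free microspheres; hits raise estrogen receptor luciferase signal so potencies reflect agonists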
Results filed as inconclusive are left out. Calls of active or inactive are those of the source. The calls were made as follows: active = hit-call score of the fitted dose curve at least 0.9, where 1 is the maximum; inconclusive = response in the unintended direction; inactive = score below 0.9.
The reply should name one outcome from yes (1) (active), no (0) (inactive)

Hi team, can someone confirm the assay call for `CN=C=S` ?
no (0)

Hi team, can someone confirm the assay call for `COc1ccc(-c2ccccc2)cc1NNC(=O)OC(C)C` ?
no (0)

Hi team, can someone confirm the assay call for `C=C(C)CN(CC)c1c([N+](=O)[O-])cc(C(F)(F)F)cc1[N+](=O)[O-]` ?
no (0)

Hi team, can someone confirm the assay call for `CC(C)Nc1nc(Cl)nc(NC(C)C)n1` ?
no (0)

Hi team, can someone confirm the assay call for `Nc1c(Cl)c(Cl)nc(C(=O)O)c1Cl` ?
yes (1)

Hi team, can someone confirm the assay call for COCC(C)N(C(=O)CCl)c1c(C)csc1C (stereo not given) ?
no (0)

Hi team, can someone confirm the assay call for `O=c1n(Cl)c(=O)n(Cl)c(=O)n1Cl` ?
no (0)

Hi team, can someone confirm the assay call for CC1(C)C(C=C(Cl)Cl)C1C(=O)OC(C#N)c1cccc(Oc2ccccc2)c1 (stereo not given) ?
yes (1)

Hi team, can someone confirm the assay call for `COP(=S)(OC)Oc1ccc([N+](=O)[O-])c(C)c1` ?
no (0)

Hi team, can someone confirm the assay call for `Cc1cc(C)nc(Nc2ccccc2)n1` ?
no (0)

Hi team, can someone confirm the assay call for CCC(C)n1c(=O)[nH]c(C)c(Br)c1=O (stereo not given) ?
no (0)

Hi team, can someone confirm the assay call for `CC(C)N1C(=O)N(c2ccccc2)CSC1=NC(C)(C)C` ?
no (0)

Hi team, can someone confirm the assay call for `CCSC(=O)N1CCCCCC1` ?
no (0)

Hi team, can someone confirm the assay call for `COP(=S)(OC)SCn1nnc2ccccc2c1=O` ?
no (0)

Hi team, can someone confirm the assay call for `N#Cc1c(Cl)cccc1Cl` ?
no (0)

Hi team, can someone confirm the assay call for `CC1(C)CON(Cc2ccccc2Cl)C1=O` ?
yes (1)

Hi team, can someone confirm the assay call for `COC(=O)NC(=S)Nc1ccccc1NC(=S)NC(=O)OC` ?
no (0)

Hi team, can someone confirm the assay call for CC(C)=CC1C(C(=O)OCc2coc(Cc3ccccc3)c2)C1(C)C (stereo not given) ?
no (0)

Hi team, can someone confirm the assay call for `CS(=O)(=O)c1cc(C(F)(F)F)ccc1C(=O)c1cnoc1C1CC1` ?
no (0)

Hi team, can someone confirm the assay call for CCOC(=O)C(C)OC(=O)c1cc(Oc2ccc(C(F)(F)F)cc2Cl)ccc1[N+](=O)[O-] (stereo not given) ?
no (0)
